test: Effect of temperature (and pH) on the stability of the solution (purity); format: physicochemical; details: 7% solution in water, pH 3.7, day 0
experimental_endpoint: Purity(%) at day 0
Output should be the measured figure followed by the unit it is expressed in.

Record request: Purity(%) at day 0 value, item CCN(CC)CCOC(=O)CC1=C(C)C(=Cc2ccc([S+](C)[O-])cc2)c2ccc(F)cc21.Cl (centres unmarked)
97.6 ± 0.2%

I'd like to know its Purity(%) at day 0. The molecule in question is CCN(CC)CCOC(=O)COc1nn(Cc2ccccc2)c2ccccc12.Cl
97.9 ± 0.1%

Reported Purity(%) at day 0 for CCN(CC)CCOC(=O)C(C)c1ccc2oc(-c3ccc(Cl)cc3)nc2c1.Cl (centres unmarked) : what is it?
98.5 ± 0.1%

Quick check: Purity(%) at day 0 of CCN(CC)CCOC(=O)CCc1ccc2cc(OC)ccc2c1.Cl ?
98.4 ± 0.2%

Dear colleague, I am looking for the recorded Purity(%) at day 0 of the following molecule: CCN(CC)CCOC(=O)Cc1c(C)n(C(=O)c2ccc(Cl)cc2)c2ccc(OC)cc12.Cl
98.5 ± 0.2%

---

assay: Effect of temperature (and pH) on the stability of the solution (purity); type: physicochemical; conditions: 7% solution in water, pH 3.7, day 0
experimental_endpoint: Purity(%) at day 0
Number only, in %; omit the unit.

INSERT INTO measurements (smiles_str, experimental_endpoint, unit_abbreviation, reported) VALUES
  ('CCN(CC)CCOC(=O)CCc1nc(-c2ccccc2)c(-c2ccccc2)o1.Cl', 'Purity(%) at day 0', '%', 98.7);

Field request: Purity(%) at day 0 | item: CCN(CC)CCOC(=O)Cc1ccc(C(=O)c2ccc(C)cc2)n1C.Cl
97.9

Quick check: Purity(%) at day 0 of CCN(CC)CCOC(=O)COC(=O)Cc1c(C)n(C(=O)c2ccc(Cl)cc2)c2ccc(OC)cc12.Cl ?
98.7

Find the recorded Purity(%) at day 0 belonging to CCN(CC)CCOC(=O)c1cc(-c2ccc(F)cc2F)ccc1OC(C)=O.Cl and report it.
99.1

---

Each entry below carries its reported Purity(%) at day 21 (5° C.).
assay: Effect of temperature (and pH) on the stability of the solution (purity); type: physicochemical; settings: 7% solution in water, pH 4.6, day 21, 5° C.
Hi! Could you send only the number? It should be in %, unit omitted.

Sample answers from the record:
INSERT INTO assay_data (molecule, reported) VALUES
  ('CCN(CC)CCOC(=O)C(C)c1ccc2oc(-c3ccc(Cl)cc3)nc2c1.Cl (centres unmarked)', 98.0),
  ('CCN(CC)CCOC(=O)Cc1c(C)n(C(=O)c2ccc(Cl)cc2)c2ccc(OC)cc12.Cl', 98.2),
  ('CCN(CC)CCOC(=O)Cc1ccc(C(=O)c2ccc(C)cc2)n1C.Cl', 96.3);

Requested read-out: Purity(%) at day 21 (5° C.). Entry: CCN(CC)CCOC(=O)COC(=O)Cc1c(C)n(C(=O)c2ccc(Cl)cc2)c2ccc(OC)cc12.Cl
98.4

# input molecule: CCN(CC)CCOC(=O)CC1=C(C)C(=Cc2ccc([S+](C)[O-])cc2)c2ccc(F)cc21.Cl (centres unmarked) ; wanted: its Purity(%) at day 21 (5° C.)
97.3

Entry CCN(CC)CCOC(=O)CCc1nc(-c2ccccc2)c(-c2ccccc2)o1.Cl : reported Purity(%) at day 21 (5° C.) = ?
97.8

What value of measured Purity(%) at day 21 (5° C.) is listed for CCN(CC)CCOC(=O)CCc1ccc2cc(OC)ccc2c1.Cl ?
98.2

Requested read-out: Purity(%) at day 21 (5° C.). Entry: CCN(CC)CCOC(=O)COc1nn(Cc2ccccc2)c2ccccc12.Cl
97.6
